target: Vasopressin V1a receptor (Homo sapiens, UniProt P37288); assay: Agonist activity at vasopressin 1a receptor (unknown origin)
Sequence (P37288 whole entry): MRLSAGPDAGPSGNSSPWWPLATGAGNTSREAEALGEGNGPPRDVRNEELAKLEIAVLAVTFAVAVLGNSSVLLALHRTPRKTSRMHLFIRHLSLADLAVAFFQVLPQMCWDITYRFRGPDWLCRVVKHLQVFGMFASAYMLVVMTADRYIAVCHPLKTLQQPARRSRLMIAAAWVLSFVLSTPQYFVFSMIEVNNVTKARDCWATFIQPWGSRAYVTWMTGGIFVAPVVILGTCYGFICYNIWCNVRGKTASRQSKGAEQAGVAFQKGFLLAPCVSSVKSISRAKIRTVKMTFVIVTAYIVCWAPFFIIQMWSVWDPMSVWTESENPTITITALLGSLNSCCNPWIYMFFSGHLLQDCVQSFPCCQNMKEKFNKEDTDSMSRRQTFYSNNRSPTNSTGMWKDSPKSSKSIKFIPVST
Where a SMILES comes first, the peptide text is derived from it. Bridges are numbered along the chain shown (N, C = ends). [ ]: non-standard residue; d: D form. The star is where a group is joined. X1 = c1ccc([C@@H]2CCCN2*)nc1; X2 = C[C@H]1CCCN1*; Mpa = O=C(O)CCS
Quick reference for EC50 among some compounds

CC[C@H](C)[C@@H]1NC(=O)[C@H](Cc2ccc(O)cc2)NC(=O)CCSSC[C@@H](C(=O)N2CCC[C@@H]2C)NC(=O)[C@H](CC(N)=O)NC(=O)[C@H](CCC(N)=O)NC1=O ([Mpa]YIQNC-X2; disulfide 1-6); > 1000 nM

Proceeding to the next compound to report its EC50.
Task: Enter reported EC50 observed with Vasopressin V1a receptor (Homo sapiens, UniProt P37288) for CC[C@H](C)[C@@H]1NC(=O)[C@H](Cc2ccc(O)cc2)NC(=O)CCSSC[C@@H](C(=O)N2CCC[C@H]2c2ccccn2)NC(=O)[C@H](CC(N)=O)NC(=O)[C@H](CCC(N)=O)NC1=O ([Mpa]YIQNC-X1; disulfide 1-6)
Result: > 1000 nM

---

assay: Stability in human liver microsomes by LC/MS/MS analysis; format: ADME, microsome; settings: read-out: Stability
Where a SMILES comes first, the peptide text is derived from it. Bridges are numbered along the chain shown (N, C = ends). [ ]: non-standard residue; d: D form. The star is where a group is joined. X8 = c1ccc(CC[C@@H]2CCCN2*)cc1; Pyrrolidide = C1CCN(*)C1; Mpa = O=C(O)CCS
MEASUREMENT_LABEL: CLint scaled

Below, 3 compounds whose answers are already recorded.
CC[C@H](C)[C@@H]1NC(=O)[C@H](Cc2ccc(O)cc2)NC(=O)CCSSC[C@@H](C(N)=O)NC(=O)[C@H](CC(N)=O)NC(=O)[C@H](CCC(N)=O)NC1=O; < 8 mL/min/kg
CC[C@H](C)[C@@H]1NC(=O)[C@H](Cc2ccc(O)cc2)NC(=O)CCSSC[C@@H](C(=O)N2CCCC2)NC(=O)[C@H](CC(N)=O)NC(=O)[C@H](CCC(N)=O)NC1=O ([Mpa]YIQNC-Pyrrolidide; disulfide 1-6); < 8 mL/min/kg
CC[C@H](C)[C@@H]1NC(=O)[C@H](Cc2ccc(O)cc2)NC(=O)CCSSC[C@@H](C(=O)N2CCC[C@H]2CCc2ccccc2)NC(=O)[C@H](CC(N)=O)NC(=O)[C@H](CCC(N)=O)NC1=O ([Mpa]YIQNC-X8; disulfide 1-6); 153 mL/min/kg

From here, focus on the item given below.
Task: I would be grateful if you could share the reported CLint scaled for `CC[C@H](C)[C@@H]1NC(=O)[C@H](Cc2ccc(O)cc2)NC(=O)[C@@H](N)CSSC[C@@H](C(=O)N2CCC[C@H]2C(=O)N[C@@H](CC(C)C)C(=O)NCC(N)=O)NC(=O)[C@H](CC(N)=O)NC(=O)[C@H](CCC(N)=O)NC1=O` .
Result: 30 mL/min/kg

---

target: Oxytocin receptor (Homo sapiens); assay: Agonist activity at human OTR expressed in CHO cells assessed as increase in calcium flux after 60 to 120 mins by fluo-4 dye based FLIPR assay relative to control; type: functional, cell-based
Where a SMILES comes first, the peptide text is derived from it. Bridges are numbered along the chain shown (N, C = ends). [ ]: non-standard residue; d: D form. The star is where a group is joined. X3 = c1ccc(OC[C@@H]2CCCN2*)cc1; X8 = c1ccc(CC[C@@H]2CCCN2*)cc1; X1 = c1ccc([C@@H]2CCCN2*)nc1; X6 = Cc1nnc([C@@H]2CCCN2*)o1; X7 = CC(C)CCN(C)*; Mpa = O=C(O)CCS
MEASUREMENT_LABEL: Efficacy (%)

CC[C@H](C)[C@@H]1NC(=O)[C@H](Cc2ccc(O)cc2)NC(=O)CCSSC[C@@H](C(=O)N2CCC[C@H]2C(N)=O)NC(=O)[C@H](CC(N)=O)NC(=O)[C@H](CCC(N)=O)NC1=O; 89
CC[C@H](C)[C@@H]1NC(=O)[C@H](Cc2ccc(O)cc2)NC(=O)CCSSC[C@@H](C(=O)N2CCC[C@H]2C(=O)N(C)CCC(C)C)NC(=O)[C@H](CC(N)=O)NC(=O)[C@H](CCC(N)=O)NC1=O ([Mpa]YIQNCP-X7; disulfide 1-6); 94
CC[C@H](C)[C@@H]1NC(=O)[C@H](Cc2ccc(O)cc2)NC(=O)CCSSC[C@@H](C(=O)N2CCC[C@H]2CCc2ccccc2)NC(=O)[C@H](CC(N)=O)NC(=O)[C@H](CCC(N)=O)NC1=O ([Mpa]YIQNC-X8; disulfide 1-6); 59
CC[C@H](C)[C@@H]1NC(=O)[C@H](Cc2ccc(O)cc2)NC(=O)CCSSC[C@@H](C(=O)N2CCC[C@H]2c2nnc(C)o2)NC(=O)[C@H](CC(N)=O)NC(=O)[C@H](CCC(N)=O)NC1=O ([Mpa]YIQNC-X6; disulfide 1-6); 77
CC[C@H](C)[C@@H]1NC(=O)[C@H](Cc2ccc(O)cc2)NC(=O)CCSSC[C@@H](C(=O)N2CCC[C@H]2c2ccccn2)NC(=O)[C@H](CC(N)=O)NC(=O)[C@H](CCC(N)=O)NC1=O ([Mpa]YIQNC-X1; disulfide 1-6); 80

I: CC[C@H](C)[C@@H]1NC(=O)[C@H](Cc2ccc(O)cc2)NC(=O)CCSSC[C@@H](C(=O)N2CCC[C@H]2COc2ccccc2)NC(=O)[C@H](CC(N)=O)NC(=O)[C@H](CCC(N)=O)NC1=O ([Mpa]YIQNC-X3; disulfide 1-6)
II: CC[C@H](C)[C@@H]1NC(=O)[C@H](Cc2ccc(O)cc2)NC(=O)CCSSC[C@@H](C(=O)N2CCC[C@H]2C(=O)N[C@@H](CC(C)C)C(N)=O)NC(=O)[C@H](CC(N)=O)NC(=O)[C@H](CCC(N)=O)NC1=O
Task: # returns the entry with the larger Efficacy; inputs I and II # reply format: chosen label
Result: II
